The reported measurements were obtained from ChEMBL document CHEMBL1201862.

Task for the reader: assign each of the following compounds its reported AC50.
Biological target: Cytochrome P450 1A2 (Homo sapiens, UniProt P05177);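 note: PubChem cytochrome P450 panel assay, CYP1A2 panel member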
Sequence (P05177 whole entry): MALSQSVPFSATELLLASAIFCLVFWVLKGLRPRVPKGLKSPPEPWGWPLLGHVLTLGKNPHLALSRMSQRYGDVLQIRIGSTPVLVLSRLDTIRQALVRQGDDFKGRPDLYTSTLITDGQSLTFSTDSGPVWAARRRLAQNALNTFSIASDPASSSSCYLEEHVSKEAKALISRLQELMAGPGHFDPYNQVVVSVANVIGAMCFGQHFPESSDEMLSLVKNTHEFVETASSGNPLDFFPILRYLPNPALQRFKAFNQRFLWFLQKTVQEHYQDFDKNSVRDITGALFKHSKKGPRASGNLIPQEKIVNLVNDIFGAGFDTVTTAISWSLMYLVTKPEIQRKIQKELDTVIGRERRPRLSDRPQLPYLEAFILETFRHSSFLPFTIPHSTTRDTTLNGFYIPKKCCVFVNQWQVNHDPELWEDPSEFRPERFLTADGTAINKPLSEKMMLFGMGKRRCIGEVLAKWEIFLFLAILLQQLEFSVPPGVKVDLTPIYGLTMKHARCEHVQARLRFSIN

Field: example entries. Status: answers known.
O=C(O)c1cccc(N2CCCC2=O)c1 : 14.1 µM (inconclusive)
CCOC(=O)c1ccc(NC(=O)COc2ccccc2OC)cc1 : 7.08 µM (inconclusive)
CCOC(=O)c1cc2sc(C)cc2n1CC(=O)N1CCN(C(=O)c2ccco2)CC1 : 31.6 µM (inconclusive)

For each entry beneath this line, provide reported AC50.
1. O=C(O)COc1ccc(OCCNC[C@@H](O)COc2ccccc2)cc1
2. N#Cc1ccc(OC(=O)c2ccc(NC(=N)N)cc2)cc1.c1ccncc1

Response line:
["39.8 µM (inconclusive)", "2.51 µM (inconclusive)"]

For each entry beneath this line, provide reported AC50.
1. Cc1cc(C)cc(C(=O)N(C)[C@H](Cc2ccc(-c3ccccc3)cc2)C(=O)N[C@@H](Cc2c[nH]c3ccccc23)C(=O)O)c1
2. O=C(CSc1nncn1-c1ccccc1)Nc1ccc(N2CCOCC2)cc1
3. COc1ccc(Cl)cc1NC(=O)C12CCC(C)(C(=O)O1)C2(C)C (stereo not drawn)
4. COCCn1c(=O)c(-c2cc(F)cc(F)c2)nc2cnc(Nc3cccc(OC)c3)nc21
5. COc1ccc2nc(N3CCCC(C(=O)NCCCN4CCN(C)CC4)C3)sc2c1 (stereo not drawn)
6. CC(=O)Oc1ccc2ccccc2c1C(NC(=O)Cc1ccccc1)c1ccc(Cl)cc1 (stereo not drawn)
7. COc1ccc(NC(=O)NCCCN2CCCCC2C)cc1 (stereo not drawn)
8. Cc1ccc(NC(=S)NC(=O)c2c(-c3ccccc3Cl)noc2C)cc1

Response line:
1. 39.8 µM (inconclusive)
2. 39.8 µM (inconclusive)
3. 28.2 µM (inconclusive)
4. 2.51 µM (inconclusive)
5. 12.6 µM (inconclusive)
6. 6.31 µM (inconclusive)
7. 25.1 µM (inconclusive)
8. 8.91 µM (inconclusive)
